- PROCEDURE_DETAILS: yeast display, Sf9 membrane polyspecificity reagent, FACS + sequencing; frameworks hold sequencing errors
ATTRIBUTE_MEASURED: polyreactivity (PSR sort gate)

QVQLVEAGGGLVQAGGSLRLSCAASGPIFPLYAKGWYRQAPGKERELVAAISSGGTTYYADSVKGRFTISRDNAKNTVYLQMNSLKQEDTAVYYCARRPAQRLGRFDYWGQGTQVTVSS    low polyreactivity
QVQLVESGGGLVQAGGSLRLSCAASGRTFYQYAMGWYRQAPGKERELVAAISRSGTSTYYADSVKGRFTISRDNAKITVYLQMNSLKPEDTAVYYCATSTGRGYSWGQGTQVTVSS    high polyreactivity
QVQLVESGGGLVQAGGSLRLSCAASGSTFSTNAMGWYRQAPGKERELVAAISRRGGNTYYADSVKGRFTISRDNAKNTVYLQMNSLKPEDTAGYYCAAKYYRFGDPDRYDYWGQGTQVTVSS    high polyreactivity
QVQLVDSGGGLVQAGGSLRLSCAASGSIFEGYVMGWYRQAPGKERELVAAITTGGGSTYYADSVKGRFTISRDNAKNTVDLPMNSLKPEDTAVYYCAKDYWFGYEYWGQGTQVTVSS    low polyreactivity

* * *

- PROCEDURE_DETAILS: yeast display, Sf9 membrane polyspecificity reagent, FACS + sequencing; frameworks hold sequencing errors
ATTRIBUTE_MEASURED: polyreactivity (PSR sort gate)

Guide cases for polyreactivity (PSR sort gate), answers given:
QVQLVESGGGLVQAGGSLRLSCAASGSTINSYAMGWYRQAPGKERELVAAITWIGGNTYYADSVKGRFTISRDNAKNTVYLQMNSLKPEDTAVYYCAADEYFEYYYWGQGTQVTVSS    low polyreactivity
QVQLVESGGGLVQAGGSLRLSCAASGSIFLSNAMGWYRQAPGKERELVASISGSGSTNYADSVKGRFTISRDNAKNTVYLQMNSLKPEDTAVYYCAAYQRYDSVTGARYEYDYWGQGTQVTVSS    low polyreactivity
QVQLVESGGGLVQAGGSLRLSCAASGFIFGYYAMGWYRQAPGKERELVAAISKSGGRTRYADSVKGRFTISRDNAKNTVYLQMNSLKPEDTAVYYCATYDPARSTQGYDYWGQGTQVTVSS    high polyreactivity
QVQLVESGGGLVQAGGSLRLSCAASGRILYHYAMGWYRQAPGKERELVAAITFSGDTTYYADSVKGRFTISRDNAKNTVYLQMNSLKPEDTAVYYCAADDYYLGYEYWGQGTQVTVSS    high polyreactivity

Please go through the list and note polyreactivity (PSR sort gate) for each sequence.
1. QVQLVESGGGLVQAGGSLRLSCAASGLTSYDYGMGWYRPAPGIERELVAAITWSGGSTYYADSVKGRFTISRDNAKNTVYLQMNSLKPEDTAVYYCAADTWGYGWYGYWGHGTQVTVSS
2. QVQLVESGGGLVQAGGSLRLSCAASGSIFLDYAMGWYRQAPGKERELVAANTSDGSTYYADSVKGRFTISRDKAKNTVYLQMNSLKPEDTAVYYCAVQDTSYDVQYSYGYWGQGTHVTVSS
3. QVQLVESGGGLVQAGGSLRLSCAASGRIFPFYVMGWDRQAPGKERELVATINWSGGSTYYADSVKGRFTISRDNAKNTLYLQMNSLKPEDTAVYYCNAAPSDDYDYWGQGTQVTVSS
4. QVQLVESGGGLDQAGGSLRLSCAASGSTFRWYAMGWYRQAPGKERELVAAISSSGGSTYYADSVKGRFTISRDNAKNTVYLQMNSLKPEDTAVYYCAADFTGPFDYWGQGTQVTVSS
5. QVQLVESGGGFVQAGGSLRLSCAASGSILSGYAMGWYRPAPGKERELVAAITSGGDTNYADSVKGRFTISRDNAKNTVYLQMNSLKPEDTAVYYCNRRGDFRIAYYDPMDYWGQGTQVTVSS
6. QVQLVESGGGLVQAGGSLRLSCAASGNIFYYNAMGGNRQAPGKERELVAAITTGGSTNYADSVKGRFTISRDNAKNTVYLQMNSLTPEDTAVYDCAADFIRYINRLLYDYWGQGTQVTVSS
7. QVQLVESGGGLVQAGGSLRLSCAASGSIFTNNAMGWYRQAPRKERELVAAISWSGGSTYYADSVKGRFTISRDNAKITVYLQMISLKPEDTAVSYCAARYLYYGGRPGYDSWGQGTQVTVSS
8. QVQRVDSGGGLVQAGGRLRLSCAASGLNFYLYAMGLYRQAPRKEREFVAAITTSGGSTHYADSVKGRFTISRDNAKNTVYLQMNSLKPEDTAVYYCAADDYFHGPGMEFDFLGQGTQVTVSS

Found:
["low polyreactivity", "low polyreactivity", "low polyreactivity", "high polyreactivity", "low polyreactivity", "low polyreactivity", "high polyreactivity", "low polyreactivity"]

Look at each sequence and report its polyreactivity (PSR sort gate).
1. QVQLVESGGGLVQAGGSLRLSCAASGSTILSYGMGWYRQAPGKERELVAGISRGGITYYADSVKGRFTISRDNAKNNVYLQMNSLKPEDTAVYYCNVGLYSYYYRSRPRDYEYWGQGTQVTVSS
2. QVQLVESGGGLVQAGGSLRLSCAASGFTYGRYAMGWYRQAPRKERELVAAISFSGGRTYYADSVKGRFTISRDNAKNTVYLQMKSLKPEDTAVYYCAARRRQEHVGRSSYARYDYWGQGTQVTVSA

Found:
high polyreactivity
high polyreactivity
